Target: recombinant human CD3ε/δ heterodimer (human) (UniProt P07766)
Sequence (P07766 23-126, stated change not applied, chain 1 of 2): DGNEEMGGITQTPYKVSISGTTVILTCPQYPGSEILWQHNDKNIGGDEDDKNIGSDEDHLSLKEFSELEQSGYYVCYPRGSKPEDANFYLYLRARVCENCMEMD
Sequence (P04234 22-105, stated change not applied, chain 2 of 2, further chain): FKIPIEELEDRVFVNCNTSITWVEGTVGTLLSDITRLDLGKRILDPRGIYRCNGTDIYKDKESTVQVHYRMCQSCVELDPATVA
Experiment: ELISA, coated CD3ε/δ
Measurement Name: Absorbance (450 nm)
One number for each entry.

The examples below pair each entry with its known result.
Binder	Absorbance (450 nm)
H16 (antibody, human IgG1, lambda, L234A L235A, V domains shown) VH: EVQLVESGGGLVQPGGSLKLSCAASGFTFNTYAMNWVRQASGKGLEWVARIRSKYNNYATYYADSVKDRFTISRDDSQSTLYLQMNSLKTEDTAVYYCVRHGNFGNSYVSWFAYWGQGTLVTVSS VL: QAVVTQEPSLTVSPGGTVTLTCRSSTGAVTTSNYANWVQQKPGQAPRGLIGGTNKRAPWTPARFSGSLLGDKAALTLSGAQPEDEAEYYCALWYSNLWVFGGGTKLTVLG	2.46
B14 (antibody, human IgG1, lambda, L234A L235A, V domains shown) VH: EVQLVESGGGLVQPGGSLKLSCAASGFTFNTYAMNWVRQASGKGLEWVGRIRSKYNNYATYYADSVKDRFTISRDDSKNTLYLQMNSLKTEDTAVYYCVRHGNFGNSYVSWFAYWGQGTLVTVSS VL: QAVVTQEPSLTVSPGGTVTLTCRSSTGAVTTSNYANWVQQKPGQAPRGLIYGTNKRAPWTPARFSGSLLGDKAALTLSGAQPEDEAEYYCALWYSNLWVFGGGTKLTVLG	0.127

Now consider a different binder.
# lookup: Absorbance (450 nm) of B04 (antibody, human IgG1, lambda, L234A L235A, V domains shown) VH: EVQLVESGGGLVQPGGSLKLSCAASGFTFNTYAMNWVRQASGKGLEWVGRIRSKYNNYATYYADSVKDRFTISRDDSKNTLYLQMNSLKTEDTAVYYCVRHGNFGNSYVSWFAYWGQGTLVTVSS VL: QAVVTQEPSLTVSPGGTVTLTCRSSTGAVTTSNYANWFQQKPGQAPRTLIGGTNKRAPWTPARFSGSLLGDKAALTLSGAQPEDEAEYYCALWYSNLWVFGGGTKLTVLG
0.087
